- Assay target: PI3Kα E545K (Homo sapiens, UniProt P42336, E545K)
- Sequence (P42336 whole entry E545K): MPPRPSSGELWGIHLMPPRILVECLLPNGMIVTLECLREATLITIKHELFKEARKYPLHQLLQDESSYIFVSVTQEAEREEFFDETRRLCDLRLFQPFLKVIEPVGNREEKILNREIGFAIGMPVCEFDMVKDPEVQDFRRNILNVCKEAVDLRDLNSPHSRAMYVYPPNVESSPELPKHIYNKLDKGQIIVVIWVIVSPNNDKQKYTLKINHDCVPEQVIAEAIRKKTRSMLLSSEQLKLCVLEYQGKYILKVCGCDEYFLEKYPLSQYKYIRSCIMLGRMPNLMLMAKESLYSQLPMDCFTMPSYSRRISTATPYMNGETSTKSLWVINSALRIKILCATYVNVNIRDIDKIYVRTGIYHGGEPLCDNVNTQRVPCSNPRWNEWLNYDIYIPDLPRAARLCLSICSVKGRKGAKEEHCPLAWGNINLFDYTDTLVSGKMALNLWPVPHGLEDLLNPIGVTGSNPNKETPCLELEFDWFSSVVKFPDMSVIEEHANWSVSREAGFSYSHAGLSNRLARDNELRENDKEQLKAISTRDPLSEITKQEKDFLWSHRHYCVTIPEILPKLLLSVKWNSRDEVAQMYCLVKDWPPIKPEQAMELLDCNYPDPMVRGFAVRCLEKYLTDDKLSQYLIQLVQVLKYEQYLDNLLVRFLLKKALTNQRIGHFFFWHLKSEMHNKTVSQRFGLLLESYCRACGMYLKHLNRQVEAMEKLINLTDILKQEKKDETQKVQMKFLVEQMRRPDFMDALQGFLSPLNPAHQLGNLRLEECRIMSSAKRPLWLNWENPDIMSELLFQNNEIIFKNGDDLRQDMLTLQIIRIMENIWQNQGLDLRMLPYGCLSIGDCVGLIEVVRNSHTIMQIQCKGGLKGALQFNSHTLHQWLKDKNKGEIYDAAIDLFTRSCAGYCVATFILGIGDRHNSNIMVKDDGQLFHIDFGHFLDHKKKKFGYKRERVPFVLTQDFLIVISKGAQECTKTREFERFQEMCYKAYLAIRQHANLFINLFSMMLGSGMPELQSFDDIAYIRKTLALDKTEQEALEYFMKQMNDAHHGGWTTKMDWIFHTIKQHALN
- Sequence (P27986 whole entry partner): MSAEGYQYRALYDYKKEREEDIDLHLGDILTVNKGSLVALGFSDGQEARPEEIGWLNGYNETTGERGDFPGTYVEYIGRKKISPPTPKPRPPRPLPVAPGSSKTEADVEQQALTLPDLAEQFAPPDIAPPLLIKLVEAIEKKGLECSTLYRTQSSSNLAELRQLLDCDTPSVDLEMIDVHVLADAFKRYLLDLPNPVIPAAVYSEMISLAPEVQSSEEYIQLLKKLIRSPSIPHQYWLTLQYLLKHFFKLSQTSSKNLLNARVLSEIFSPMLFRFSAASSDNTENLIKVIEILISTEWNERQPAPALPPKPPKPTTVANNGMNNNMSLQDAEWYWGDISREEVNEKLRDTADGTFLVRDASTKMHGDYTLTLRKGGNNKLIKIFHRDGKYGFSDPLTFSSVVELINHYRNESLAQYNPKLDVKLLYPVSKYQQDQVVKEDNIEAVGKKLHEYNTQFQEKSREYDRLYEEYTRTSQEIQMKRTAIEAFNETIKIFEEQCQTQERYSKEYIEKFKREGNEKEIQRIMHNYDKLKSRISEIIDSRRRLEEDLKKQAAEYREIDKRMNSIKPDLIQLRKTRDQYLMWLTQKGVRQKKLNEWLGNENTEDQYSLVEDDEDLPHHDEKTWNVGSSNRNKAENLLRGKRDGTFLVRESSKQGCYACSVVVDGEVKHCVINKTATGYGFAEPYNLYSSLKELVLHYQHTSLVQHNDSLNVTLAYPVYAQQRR
- Assay protocol: PI3Kα E545K mutant in vitro cell based assay, MCF-7 cells
- Setup conditions: MCF-7 cell line, 0% FBS, 3 hours treatment
- Description: PI3K-Alpha Kinase (PI3Kα) Activity: Wild-Type PI3Kα, H1047R Mutant PI3Kα, and E545K Mutant PI3Kα In Vitro Cell Based Assays and Determination of IC50 Values for Inhibitors […] The Acceptor beads were diluted 50-fold in the combined Reaction Buffers. […] The plates were read on a Neo2 plate reader instrument from Biotek using standard AlphaLisa settings. […]
pIC50: −log10 of the molar value.
Property label: pIC50

// solved cases for pIC50 follow
Cc1cc([C@@H](C)Oc2ccc(Cl)nc2-c2noc(=O)[nH]2)c2oc(-c3ccc4c(c3)OC(F)(F)O4)c(C)c(=O)c2c1 [Example 46A] :: > 6.30
Cc1cc([C@@H](C)Oc2ccc(Cl)nc2C(N)=O)c2oc(-c3ccc4c(c3)CCNC4=O)c(C)c(=O)c2c1 [Example 116A] :: > 6.30
Cc1cc([C@@H](C)Oc2ccc(Cl)nc2S(N)(=O)=O)c2oc(-c3ccc4nn(C)cc4c3)c(C)c(=O)c2c1 [Example 16A] :: > 6.30
Cc1cc([C@@H](C)Oc2ccc(Cl)nc2-c2noc(=O)[nH]2)c2oc(-c3ccccc3)c(C)c(=O)c2c1 :: > 6.30
Cc1cc([C@@H](C)Oc2ccc(Cl)nc2C(N)=O)c2oc(-c3ccc4nsnc4c3)c(C)c(=O)c2c1 [Example 140A] :: > 6.30

[ask] Which pIC50 is reported for this compound? Cc1cc([C@@H](C)Oc2ccc(Cl)nc2S(N)(=O)=O)c2oc(-c3ccc4nc(C)cn4c3)c(C)c(=O)c2c1 [Example 120C]
[reply] > 6.30

[ask] Which pIC50 is reported for this compound? Cc1cc([C@@H](C)Oc2ccc(Cl)nc2S(N)(=O)=O)c2oc(-c3cn[nH]c3)c(C)c(=O)c2c1 [Example 115C]
[reply] > 6.30

[ask] Which pIC50 is reported for this compound? Cc1cc([C@@H](C)Oc2ccc(Cl)nc2C(N)=O)c2oc(-c3cc(C)c4nn(C)cc4c3)c(C)c(=O)c2c1 [Example 45C]
[reply] > 6.30

[ask] Which pIC50 is reported for this compound? Cc1cc([C@@H](C)Oc2ccc(Cl)nc2S(N)(=O)=O)c2oc(C3(CCO)CC3)c(C)c(=O)c2c1 [Example 127C]
[reply] > 6.30

[ask] Which pIC50 is reported for this compound? Cc1cc([C@@H](C)Oc2ccc(Cl)nc2S(C)(=O)=O)c2oc(-c3cnn(CCO)c3)c(C)c(=O)c2c1 [Example 29B]
[reply] > 6.30

* * *

The following compounds are shown together with reported IC50 values.
- Assay target: PI3Kα E545K (Homo sapiens, UniProt P42336, E545K)
- Assay protocol: PI3Kα E545K mutant in vitro cell based assay, MDA-MB-361 cells
- Parameters: MDA-MB-361 (ATCC-HTB-27) cell line (PI3Kα E545K); host or cells: MDA-MB-361
- Setup conditions: MDA-MB-361 cell line, 0% FBS, no insulin, 3 hours treatment

Cc1cc([C@@H](C)Oc2ccc(Cl)nc2S(N)(=O)=O)c2oc(-c3cn[nH]c3)c(C)c(=O)c2c1 [Example 115C] :: < 500 nM
CONS(=O)(=O)c1nc(Cl)ccc1O[C@H](C)c1cc(C)cc2c(=O)c(C)c(-c3cnn(CC(C)(C)O)c3)oc12 [Example 121C] :: < 500 nM
Cc1cc([C@@H](C)Oc2ccc(Cl)nc2S(N)(=O)=O)c2oc(-c3cnn(C[C@]45C[C@H](CO4)C5)c3)c(C)c(=O)c2c1 [Example 118C] :: < 500 nM
Cc1cc([C@@H](C)Oc2ccc(Cl)cc2S(N)(=O)=O)c2oc(-c3ccccc3)c(C)c(=O)c2c1 [Example 98C] :: < 500 nM
Cc1cc([C@@H](C)Oc2ccc(Cl)nc2C(N)=O)c2oc(-c3cnc4ccoc4c3)c(C)c(=O)c2c1 [Example 80C] :: < 500 nM
Cc1cc([C@@H](C)Oc2ccc(Cl)nc2S(N)(=O)=O)c2oc(C3CC3)c(C)c(=O)c2c1 [Example 74A] :: < 500 nM

Now consider a different compound.
[ask] Which IC50 is reported for this compound? Cc1cc([C@@H](C)Oc2ccc(Cl)nc2C(N)=O)c2oc(-c3cnn4c3OCC4)c(C)c(=O)c2c1 [Example 36C]
[reply] < 500 nM
